Reference source: patent US20260193272A1

system under test: PAD4 enzyme (Homo sapiens)
Construct: PAD4 enzyme was diluted to 30 nM in Assay Buffer
Sequence (Q9UM07 whole entry): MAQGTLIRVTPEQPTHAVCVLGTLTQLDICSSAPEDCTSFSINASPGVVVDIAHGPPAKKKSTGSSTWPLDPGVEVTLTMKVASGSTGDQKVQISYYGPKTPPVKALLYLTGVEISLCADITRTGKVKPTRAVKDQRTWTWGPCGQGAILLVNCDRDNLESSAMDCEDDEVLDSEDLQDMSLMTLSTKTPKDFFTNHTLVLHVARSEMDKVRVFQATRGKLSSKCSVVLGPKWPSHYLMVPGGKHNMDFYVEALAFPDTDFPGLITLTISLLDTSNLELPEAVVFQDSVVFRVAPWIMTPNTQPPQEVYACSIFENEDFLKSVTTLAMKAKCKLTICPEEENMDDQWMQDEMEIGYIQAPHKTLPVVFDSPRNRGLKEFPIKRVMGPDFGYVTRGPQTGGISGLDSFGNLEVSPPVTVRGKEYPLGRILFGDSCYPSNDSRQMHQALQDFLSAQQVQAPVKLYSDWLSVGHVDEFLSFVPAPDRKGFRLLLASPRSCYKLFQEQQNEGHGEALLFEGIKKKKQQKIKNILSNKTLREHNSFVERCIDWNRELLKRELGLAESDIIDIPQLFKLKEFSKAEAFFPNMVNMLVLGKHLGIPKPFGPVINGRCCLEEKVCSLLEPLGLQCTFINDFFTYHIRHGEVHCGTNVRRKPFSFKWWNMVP
assay name: In-vitro measurement for enzymatic PAD4 citrullination inhibition activity (ammonia release)
Format: biochemical
reported conditions: read-out: IC50 of inhibition enzymatic activity of PAD4 (Colorimetric assays, Nature Chemical Biology, 2015, 11: 189-191)
Experimental: Citrullination was detected via ammonia release based on published methodology (Nature Chemical Biology, 2015, 11: 189-191). PAD4 enzyme was diluted to 30 nM in Assay Buffer (100 mM HEPES, 50 mM NaCl, 2 mM DTT, 0.6 mg/ml BSA, pH 8) and added to wells containing various concentrations of compound or DMSO vehicle (0.8% final) in a high-volume black 96-well plate (Greiner). […] After which IC50 values were calculated using GraphPad Prism 8.0.
In this section, each of the compounds is paired with its reported IC50.

Please review the entries below; each comes with its answer.
| input smiles | IC50 |
| --- | --- |
| COc1cc(C(=O)N2C[C@H](N)CC[C@@H]2C)cc2nc(-c3cc4[se]c(C)nc4n3Cc3ccccn3)n(C)c12 | 100 to 500 nM |
| COc1ccccc1-c1cc2c(cc(-c3nc4cc(C(=O)N5C[C@H](N)CC[C@@H]5C)cc(OC)c4n3C)n2CC2CC2)[se]1 | ≤ 50 nM |
| COc1cc(C(=O)N2C[C@H](N)CC[C@@H]2C)cc2nc(-c3cc4[se]c(C)nc4n3Cc3ccc(C(F)(F)F)cc3)n(C)c12 | > 500 nM |
| COc1cc(C(=O)N2CCC[C@@H](N)C2)cc2nc(-c3cc4[se]c(C5CC5)nc4n3CC3CC3)n(C)c12 | ≤ 50 nM |
| COc1cc(C(=O)N2C[C@H]3CC[C@@H]2[C@@H]3N)cc2nc(-c3cc4[se]c(C)nc4n3CC3CC3)n(C)c12 | ≤ 50 nM |

Problem: Tell me the measured IC50 of COc1cc(C(=O)N2C[C@H](N)CC[C@@H]2C)cc2nc(-c3cc4[se]c(C)nc4n3CC(F)(F)F)n(C)c12 , please.
Result: 100 to 500 nM

Problem: Tell me the measured IC50 of COc1cc(C(=O)N2C[C@H](N)CC[C@@H]2C)cc2nc(-c3cc4[se]ccc4n3CC3CC3)n(C)c12 , please.
Result: 100 to 500 nM

Problem: Tell me the measured IC50 of COc1cc(C(=O)N2C[C@H](N)C[C@@H](F)C2)cc2nc(-c3cc4[se]c(C)nc4n3CC3CCC3)n(C)c12 , please.
Result: ≤ 50 nM

Problem: Tell me the measured IC50 of COc1cc(C(=O)N2C[C@H](N)C[C@@H](F)C2)cc2nc(-c3cc4[se]c(C5CC5)nc4n3CC3CC3)n(C)c12 , please.
Result: ≤ 50 nM

Problem: Tell me the measured IC50 of COc1cc(C(=O)N2CCC[C@@H](N)C2)cc2nc(-c3cc4[se]c(C)cc4n3CC3CC3)n(C)c12 , please.
Result: 50 to 100 nM

Problem: Tell me the measured IC50 of CCc1nc2c(cc(-c3nc4cc(C(=O)N5C[C@H]6CC[C@@H]5[C@@H]6N)cc(OC)c4n3C)n2CC2CC2)[se]1 , please.
Result: ≤ 50 nM

Problem: Tell me the measured IC50 of COc1cc(C(=O)N2C[C@H](N)C[C@@H](F)C2)cc2nc(-c3cc4[se]c(-c5cccc(C)c5)nc4n3CC3CC3)n(C)c12 , please.
Result: > 500 nM

Problem: Tell me the measured IC50 of COc1cc(C(=O)N2CC[C@@H](F)[C@@H](N)C2)cc2nc(-c3cc4[se]c(C)nc4n3CC3CC3)n(C)c12 , please.
Result: 100 to 500 nM

Problem: Tell me the measured IC50 of Cc1nc2c(cc(-c3nc4cc(C(=O)N5C[C@H](N)C[C@@H](F)C5)ccn4c3C)n2CC2CC2)[se]1 , please.
Result: 50 to 100 nM
